molecular target: UniProtKB P14780
Sequence (P14780 94-707): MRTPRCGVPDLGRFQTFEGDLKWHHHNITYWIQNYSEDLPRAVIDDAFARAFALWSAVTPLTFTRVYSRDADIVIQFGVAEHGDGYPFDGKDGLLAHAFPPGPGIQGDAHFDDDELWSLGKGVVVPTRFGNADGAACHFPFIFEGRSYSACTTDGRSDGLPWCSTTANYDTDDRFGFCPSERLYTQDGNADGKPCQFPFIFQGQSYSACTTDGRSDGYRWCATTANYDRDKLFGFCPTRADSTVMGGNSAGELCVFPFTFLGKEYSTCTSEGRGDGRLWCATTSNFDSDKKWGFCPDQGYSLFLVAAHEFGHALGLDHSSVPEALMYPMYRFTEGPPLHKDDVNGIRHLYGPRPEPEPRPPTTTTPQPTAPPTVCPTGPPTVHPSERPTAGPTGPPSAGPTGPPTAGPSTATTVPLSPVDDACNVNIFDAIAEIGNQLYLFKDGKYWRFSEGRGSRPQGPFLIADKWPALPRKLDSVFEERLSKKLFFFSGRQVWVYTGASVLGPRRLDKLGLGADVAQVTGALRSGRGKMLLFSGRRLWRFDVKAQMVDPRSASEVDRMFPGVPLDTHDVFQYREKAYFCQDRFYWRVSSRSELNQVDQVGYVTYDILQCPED
VALUE_KIND: IC50 (nM)

>>> value("COc1ccc(S(=O)(=O)N(Cc2ccccc2)[C@H]2CCCC[C@H]2C(=O)NO)cc1 (relative stereo) [Example 10]")
275
